biological target: recombinant human CD200 Fc Chimera (human) (UniProt P41217); experiment: SPR (Biacore 3000), CD200-Fc captured by anti-human Fc on CM5, Fab injected, 1:1 Langmuir
Metric name: koff (s⁻¹)
Report the value in s⁻¹ with no unit label.

1. TPP-103 (Fab, V domains shown) VH: QVQLVQSGAEVKKPGASVKVSCKASGYSFTDYIILWVRQAPGQGLEWMGHIDPYYGSSNYNLKFKGRVTMTRDTSTSTVYMELSSLRSEDTAVYYCARSKRDYFDYWGQGTLVTVSS VL: DIQMTQSPSSLSASVGDRVTITCKASQDINSYLSWFQQKPGKAPKSLIYRANRLVDGVPSRFSGSGSGTDFTLTISSLQPEDFATYYCLQYDEFPYTFGQGTKLEIK = 0.00704

Now for the binder whose koff we want.
Look up koff of TPP-115 (Fab, V domains shown) VH: QVQLVQSGAEVKKPGASVKVSCKASGYSFTDYIILWVRQAPGQGLEWMGHIDPYYGSSNYNLKFKGRVTMTRDTSISTAYMELSRLRSDDTAVYYCARSKRDYFDYWGQGTLVTVSS VL: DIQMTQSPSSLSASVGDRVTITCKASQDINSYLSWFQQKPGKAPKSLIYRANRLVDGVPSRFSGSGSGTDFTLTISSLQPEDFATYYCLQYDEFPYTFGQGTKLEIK and report it.
0.0053
